This collection of values is drawn from patent US20160257732A1.

- TESTED TARGET: HA of A/New Jersey/8/76 (H1N1) (influenza A virus)
- EXPERIMENT NOTES: cell-based or functional assay
PROPERTY: Neutralization IC50, H1-NJ76 (µg/mL)
Numbers only; they are read as µg/mL.

Consider Antibody 5 (antibody, V domains shown) VH: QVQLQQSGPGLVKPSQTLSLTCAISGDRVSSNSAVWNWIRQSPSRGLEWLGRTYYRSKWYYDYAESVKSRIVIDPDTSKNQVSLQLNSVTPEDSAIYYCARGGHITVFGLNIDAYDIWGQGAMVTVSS VL: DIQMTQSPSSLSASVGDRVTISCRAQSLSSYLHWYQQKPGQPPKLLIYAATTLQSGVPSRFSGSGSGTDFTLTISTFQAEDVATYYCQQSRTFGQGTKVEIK . Its measured Neutralization IC50, H1-NJ76 is 1.64

Consider Antibody 8 (antibody, V domains shown) VH: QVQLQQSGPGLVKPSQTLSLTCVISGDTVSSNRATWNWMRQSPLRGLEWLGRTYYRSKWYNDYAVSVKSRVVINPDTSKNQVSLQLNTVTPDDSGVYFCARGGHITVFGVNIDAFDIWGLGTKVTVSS VL: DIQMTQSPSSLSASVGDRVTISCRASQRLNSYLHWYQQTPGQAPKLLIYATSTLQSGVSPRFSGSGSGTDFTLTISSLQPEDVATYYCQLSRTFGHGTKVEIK . Its measured Neutralization IC50, H1-NJ76 is 2.26

Consider Antibody 10 (antibody, V domains shown) VH: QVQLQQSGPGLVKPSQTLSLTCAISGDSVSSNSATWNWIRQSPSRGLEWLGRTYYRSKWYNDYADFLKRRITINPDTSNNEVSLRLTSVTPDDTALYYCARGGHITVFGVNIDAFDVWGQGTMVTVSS VL: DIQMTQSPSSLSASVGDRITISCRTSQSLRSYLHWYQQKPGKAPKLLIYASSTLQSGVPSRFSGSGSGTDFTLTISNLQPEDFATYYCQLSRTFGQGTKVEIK . Its measured Neutralization IC50, H1-NJ76 is 0.15

Consider Antibody 3 (antibody, V domains shown) VH: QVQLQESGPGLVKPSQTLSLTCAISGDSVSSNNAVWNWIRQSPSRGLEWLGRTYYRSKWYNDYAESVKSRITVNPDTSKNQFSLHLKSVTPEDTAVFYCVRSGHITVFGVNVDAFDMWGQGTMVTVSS VL: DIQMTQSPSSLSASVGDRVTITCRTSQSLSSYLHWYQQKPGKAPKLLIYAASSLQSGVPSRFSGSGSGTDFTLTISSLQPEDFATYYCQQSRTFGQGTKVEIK . Its measured Neutralization IC50, H1-NJ76 is 1.41
